Record form. Attribute: glycan array binding signal (z-score). Fill in for each entry.
molecular target: GalNAc(a1-3)GalNAc; assay: glycan array binding signal (z-score within array); higher = stronger binding; conditions: glycan notation: IUPAC condensed, linker removed
About 410 targets per protein were measured; listed, in parts, are those with the strongest signals and a random draw of the rest.
Answers are plain numbers.

BINDER	MEASUREMENT KIND	VALUE
CLC (Homo sapiens), Q9UBD9 (protein) MDLRAGDSWGMLACLCTVLWHLPAVPALNRTGDPGPGPSIQKTYDLTRYLEHQLRSLAGTYLNYLGPPFNEPDFNPPRLGAETLPRATVDLEVWRSLNDKLRLTQNYEAYSHLLCYLRGLNRQAATAELRRSLAHFCTSLQGLLGSIAGVMAALGYPLPQPLPGTEPTWTPGPAHSDFLQKMDDFWLLKELQTWLWRSAKDFNRLKKKMQPPAAAVTLHLGAHGF	glycan array binding signal (z-score)	0.257

Go through the items and report each one's glycan array binding signal (z-score).
1. HPA (Helix pomatia), Q2F1K8 (protein) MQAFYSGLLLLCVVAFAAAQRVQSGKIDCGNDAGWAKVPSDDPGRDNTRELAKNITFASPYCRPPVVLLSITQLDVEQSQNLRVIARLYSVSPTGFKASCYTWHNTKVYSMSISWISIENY
2. MXA PilAct-eGFP (Myxococcus xanthus), Q59589 (protein) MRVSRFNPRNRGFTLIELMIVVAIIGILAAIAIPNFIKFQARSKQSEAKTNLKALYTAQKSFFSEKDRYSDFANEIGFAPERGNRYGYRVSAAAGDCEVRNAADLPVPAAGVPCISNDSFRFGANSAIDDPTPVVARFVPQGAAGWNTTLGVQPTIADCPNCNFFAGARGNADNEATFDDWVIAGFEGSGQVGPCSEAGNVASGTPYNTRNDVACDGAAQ
3. Tachylectin-2 (Tachypleus tridentatus), TAL2_TACTR (protein) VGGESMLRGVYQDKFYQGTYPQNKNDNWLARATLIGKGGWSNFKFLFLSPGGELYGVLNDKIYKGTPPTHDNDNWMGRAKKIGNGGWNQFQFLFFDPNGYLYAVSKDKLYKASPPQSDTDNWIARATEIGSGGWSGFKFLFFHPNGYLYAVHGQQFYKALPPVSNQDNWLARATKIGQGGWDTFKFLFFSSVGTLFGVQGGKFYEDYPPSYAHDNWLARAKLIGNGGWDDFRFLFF
4. XTP3-B-MRH1 (Homo sapiens), Q96DZ1 (protein) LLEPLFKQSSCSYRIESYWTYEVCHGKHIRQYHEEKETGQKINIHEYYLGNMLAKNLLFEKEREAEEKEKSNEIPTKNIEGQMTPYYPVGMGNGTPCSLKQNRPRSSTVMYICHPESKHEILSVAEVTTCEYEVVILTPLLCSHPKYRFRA
5. MRCL (Homo sapiens), NP_872425.1 (protein) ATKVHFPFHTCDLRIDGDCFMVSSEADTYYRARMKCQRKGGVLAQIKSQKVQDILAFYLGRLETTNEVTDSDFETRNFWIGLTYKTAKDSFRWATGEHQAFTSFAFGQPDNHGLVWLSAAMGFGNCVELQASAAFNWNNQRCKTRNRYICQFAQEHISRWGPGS

[3.28, -1.12, 4.41, 3.12, -0.581]
